Recorded values, source patent EP3436445B1.

Measured IC50, listed per entry for reference.
Molecular target: Jarid1B (Homo sapiens, UniProt Q9UGL1)
Sequence (Q9UGL1 2-751): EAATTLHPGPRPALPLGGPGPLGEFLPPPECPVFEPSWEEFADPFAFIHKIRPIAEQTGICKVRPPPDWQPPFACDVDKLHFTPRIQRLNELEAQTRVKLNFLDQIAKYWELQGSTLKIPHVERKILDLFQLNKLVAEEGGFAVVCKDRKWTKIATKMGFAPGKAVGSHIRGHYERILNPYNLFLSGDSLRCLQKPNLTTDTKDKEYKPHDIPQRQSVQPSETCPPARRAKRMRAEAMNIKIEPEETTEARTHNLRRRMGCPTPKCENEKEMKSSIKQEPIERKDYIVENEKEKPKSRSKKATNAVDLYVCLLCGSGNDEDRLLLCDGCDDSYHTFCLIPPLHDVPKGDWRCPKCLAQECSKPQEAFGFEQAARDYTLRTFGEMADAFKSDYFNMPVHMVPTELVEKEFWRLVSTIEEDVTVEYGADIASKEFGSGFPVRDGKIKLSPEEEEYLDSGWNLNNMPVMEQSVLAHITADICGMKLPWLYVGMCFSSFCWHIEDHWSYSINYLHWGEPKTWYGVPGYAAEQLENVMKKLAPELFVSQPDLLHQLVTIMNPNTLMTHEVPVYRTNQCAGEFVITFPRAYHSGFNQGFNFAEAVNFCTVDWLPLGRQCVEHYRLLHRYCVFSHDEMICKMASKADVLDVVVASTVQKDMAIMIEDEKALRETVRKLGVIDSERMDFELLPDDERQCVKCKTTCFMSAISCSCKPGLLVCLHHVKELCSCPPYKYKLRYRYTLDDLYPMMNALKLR

Study these solved cases before continuing.
Molecule	Value observed
Fc1cccc(F)c1CCn1cnc(-c2cc(-c3nn[nH]c3C(F)(F)F)ccn2)c1 [Example 87]	0.1 to 1 µM
FC(F)(F)c1ccc(CCn2cnc(-c3cc(-c4nn[nH]c4C(F)(F)F)ccn3)c2)cc1 [Example 94]	0.1 to 1 µM
Fc1ccc(CCn2cnc(-c3cc(-c4nn[nH]c4C(F)(F)F)ccn3)c2)c(F)c1 [Example 86]	≤ 0.1 µM
Fc1cccc(CCn2cnc(-c3cc(-c4nn[nH]c4C(F)(F)F)ccn3)c2)c1 [Example 78]	≤ 0.1 µM
Cc1ccc2c(c1)C(Cn1cnc(-c3cc(-c4nn[nH]c4C(F)(F)F)ccn3)c1)CCC2 (stereo not shown) [Example 103]	≤ 0.1 µM

Enquiry: Which value of IC50 has been reported for Fc1ccc2c(c1)C(Cn1cnc(-c3cc(-c4nn[nH]c4C(F)(F)F)ccn3)c1)CCC2 (stereo not shown) [Example 101] in the records?
Return: ≤ 0.1 µM

Enquiry: Which value of IC50 has been reported for FC(F)(F)c1[nH]nnc1-c1ccnc(-c2cn(CC3CCc4ccccc43)cn2)c1 (stereo not shown) [Example 83] in the records?
Return: ≤ 0.1 µM

* * *

Biological target: FBXL10 (Homo sapiens)
Construct: purchased BPS Bioscience 50120
Sequence (Q8NHM5 1-650): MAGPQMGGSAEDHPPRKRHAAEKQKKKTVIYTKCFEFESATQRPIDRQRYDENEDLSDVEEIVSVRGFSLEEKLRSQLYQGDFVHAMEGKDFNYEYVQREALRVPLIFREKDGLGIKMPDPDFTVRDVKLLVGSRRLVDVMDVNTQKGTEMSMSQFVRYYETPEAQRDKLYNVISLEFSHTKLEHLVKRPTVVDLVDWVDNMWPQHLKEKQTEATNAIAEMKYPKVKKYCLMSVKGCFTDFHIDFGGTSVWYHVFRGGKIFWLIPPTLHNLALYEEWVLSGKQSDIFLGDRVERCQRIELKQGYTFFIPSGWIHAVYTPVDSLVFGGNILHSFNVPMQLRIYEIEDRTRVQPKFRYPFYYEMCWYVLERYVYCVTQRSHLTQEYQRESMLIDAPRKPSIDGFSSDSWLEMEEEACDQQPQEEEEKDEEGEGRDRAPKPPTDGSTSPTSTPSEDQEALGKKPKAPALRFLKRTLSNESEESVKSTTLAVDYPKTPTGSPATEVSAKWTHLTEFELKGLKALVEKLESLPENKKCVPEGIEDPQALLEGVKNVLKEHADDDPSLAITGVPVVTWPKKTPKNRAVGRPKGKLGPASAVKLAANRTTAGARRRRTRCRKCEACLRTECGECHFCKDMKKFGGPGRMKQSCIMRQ
Assay: FBXL10 in vitro enzyme inhibition assay (AlphaScreen)
Assay type: biochemical
Conditions: Table 5
pIC50: −log10 of the molar value.
Measured pIC50, listed per entry for reference.

Study these solved cases before continuing.
Compound	pIC50
O=C(c1ccccc1)N1CCC[C@H](n2cnc(-c3cc(-c4nn[nH]c4C(F)(F)F)ccn3)c2)C1	≥ 7.00
Fc1cccc2c1CCCC2Cn1cnc(-c2cc(-c3nn[nH]c3C(F)(F)F)ccn2)c1 (centres unmarked)	6.00 to 7.00
COc1ccc2c(c1)CCCC2Cn1cnc(-c2cc(-c3nn[nH]c3C(F)(F)F)ccn2)c1 (centres unmarked)	6.00 to 7.00
Cc1ccc(Cn2cnc(-c3cc(-c4nn[nH]c4C(F)(F)F)ccn3)c2)c(F)c1	≥ 7.00

Enquiry: Which value of pIC50 has been reported for `Fc1cccc(F)c1Cn1cnc(-c2cc(-c3nn[nH]c3C(F)(F)F)ccn2)c1` in the records?
Return: ≥ 7.00

Enquiry: Which value of pIC50 has been reported for `Fc1cccc(F)c1CCn1cnc(-c2cc(-c3nn[nH]c3C(F)(F)F)ccn2)c1` in the records?
Return: ≥ 7.00

Enquiry: Which value of pIC50 has been reported for `Fc1ccccc1Cn1cnc(-c2cc(-c3nn[nH]c3C(F)(F)F)ccn2)c1` in the records?
Return: ≥ 7.00

Enquiry: Which value of pIC50 has been reported for `COc1ccc(Cn2cnc(-c3cc(-c4nn[nH]c4C(F)(F)F)ccn3)c2)cc1` in the records?
Return: ≥ 7.00

* * *

# IC50 per entry for FBXL11 (Homo sapiens)

Compound	Assayed target	IC50
Clc1cccc(-n2cnc(-c3cc4[nH]nnc4cn3)c2)c1 [Example 51]	FBXL11 (Homo sapiens)	100 to 1000 nM

Now turn to the next compound.
Enquiry: Which value of IC50 has been reported for Clc1ccc(Cn2cnc(-c3cc4[nH]nnc4cn3)c2)cc1 [Example 47] in the records?
Return: ≤ 100 nM

* * *

Biological target: FBXL10 (Homo sapiens, UniProt Q8NHM5)
Construct: purchased BPS Bioscience 50120
Sequence (Q8NHM5 1-650): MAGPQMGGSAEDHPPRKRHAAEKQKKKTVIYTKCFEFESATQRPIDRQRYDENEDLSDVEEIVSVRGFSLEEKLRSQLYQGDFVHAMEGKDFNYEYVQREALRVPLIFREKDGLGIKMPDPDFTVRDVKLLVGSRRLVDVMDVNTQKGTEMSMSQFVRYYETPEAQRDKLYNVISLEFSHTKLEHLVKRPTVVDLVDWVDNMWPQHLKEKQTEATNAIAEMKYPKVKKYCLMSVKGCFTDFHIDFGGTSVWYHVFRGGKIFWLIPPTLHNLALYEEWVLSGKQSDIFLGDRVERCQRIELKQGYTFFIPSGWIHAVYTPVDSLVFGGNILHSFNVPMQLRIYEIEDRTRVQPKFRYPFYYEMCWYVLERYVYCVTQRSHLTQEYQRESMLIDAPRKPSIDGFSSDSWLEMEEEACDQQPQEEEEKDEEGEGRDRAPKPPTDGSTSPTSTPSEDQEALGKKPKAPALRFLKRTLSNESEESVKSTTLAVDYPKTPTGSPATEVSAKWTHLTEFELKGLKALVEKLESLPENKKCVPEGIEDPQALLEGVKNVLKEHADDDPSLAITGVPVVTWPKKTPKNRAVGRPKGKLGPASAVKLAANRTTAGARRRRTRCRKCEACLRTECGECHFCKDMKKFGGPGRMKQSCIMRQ
Assay: FBXL10 in vitro enzyme inhibition assay (AlphaScreen)
Assay type: biochemical
Details: Table 5
Parameter measured: IC50

Study these solved cases before continuing.
Molecule	Value observed
COc1ccc2c(c1)C(Cn1cnc(-c3cc(-c4nn[nH]c4C(F)(F)F)ccn3)c1)CCC2 (centres unmarked)	0.1 to 1 µM
Cc1cc(F)ccc1Cn1cnc(-c2cc(-c3nn[nH]c3C(F)(F)F)ccn2)c1	≤ 0.1 µM
FC(F)(F)c1[nH]nnc1-c1ccnc(-c2cn(Cc3ccccc3Cl)cn2)c1	≤ 0.1 µM
Cc1ccc2c(c1)CCCC2Cn1cnc(-c2cc(-c3nn[nH]c3C(F)(F)F)ccn2)c1 (centres unmarked)	1 to 10 µM
Fc1cc(F)c(CCn2cnc(-c3cc(-c4nn[nH]c4C(F)(F)F)ccn3)c2)cc1F	≤ 0.1 µM

Enquiry: Which value of IC50 has been reported for FC(F)(F)c1[nH]nnc1-c1ccnc(-c2cn(CC3CCc4ccccc43)cn2)c1 (centres unmarked) in the records?
Return: 0.1 to 1 µM

Enquiry: Which value of IC50 has been reported for `Fc1ccc(CCn2cnc(-c3cc(-c4nn[nH]c4C(F)(F)F)ccn3)c2)cc1` in the records?
Return: ≤ 0.1 µM

Enquiry: Which value of IC50 has been reported for Fc1ccc2c(c1)CCCC2Cn1cnc(-c2cc(-c3nn[nH]c3C(F)(F)F)ccn2)c1 (centres unmarked) in the records?
Return: 0.1 to 1 µM
